B1: tRNA (parent)
chain: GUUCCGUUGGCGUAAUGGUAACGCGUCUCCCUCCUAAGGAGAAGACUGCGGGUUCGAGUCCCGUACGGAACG

# Variants of: B1
# Assay summary: yeast fitness relative to wild type (ratio to wild type); higher = fitter; tRNA-Arg(CCU), competitive growth, 37 C, YPD
Fewer inactive variants are shown than the library holds.
Measurement kind: yeast fitness

Sequence chain: GUUACGUUGGCGUAAUGGUAACGCAUUGCCCUGCUGAGGAGAAGACUGCGGGUUCGAGUCCCGUACGGAACG
Op: ≤
Endpoint value: 0.5

Sequence chain: GUUCCGUUGGCGUAAUGGUAACGCGUCUCCCUGCUAAGGAGAAGACGGCGGGUUCAGGUCCCGUACGGUACG
Op: ≤
Endpoint value: 0.5

Sequence chain: GUUCCGUUGGCGUAAUGGUAACGCGUCUCCUUCCUAAGGAGAAGACAGCGUGUUCGAGUCCCGUACGGAACG
Op: ≤
Endpoint value: 0.5

Sequence chain: GUUCGGUUGGCGUAAUGGUAACGCGUCUCCCUCCUAAGGAGAAGACUGCGGGUUCGAGUCAUGUUCGGCACG
Op: ≤
Endpoint value: 0.5

Sequence chain: GUUCCGUCGGCCUAAUGGUAACGCGUCUCCCGCCUAAGGAGUAGACUGCGGGUUCGAGUCCCGUACGGAACG
Op: ≤
Endpoint value: 0.5

Sequence chain: GUUCCCUUGGUGUAAUGGUACCGCGUCUCCCUCCUAAGGAGAAGACUGCGGAUUCGAGUCACGUACCGAACG
Op: ≤
Endpoint value: 0.5

Sequence chain: GUUCCGUUGGCGUCAAGGUACCGCGUCUCCCUCCUAAGGAGAAGACUGCGGGUUCAAGUCCCGUACGGAACG
Op: ≤
Endpoint value: 0.5

Sequence chain: GUUCCGUUGCCGUAAUGGUAACGCGUUUCCCUCCUAAGGAGAAGACGGCGGGUUCGAGUCCCGUACGGAACG
Op: =
Endpoint value: 0.632

Sequence chain: GUUCCGCUGGCGUAAUGGUAACGCGUCUCCCUCCUAAGGAGAAGACUGUGGGUUCAAGUCCCGUCCGGAACG
Op: =
Endpoint value: 0.607

Sequence chain: GUUCCGUUGGCGUAAUGGUAACGCGUCUCCCUCCAAAGGAGAAGACUGCGGGUUCGAGCCCUGUAUGGAACG
Op: =
Endpoint value: 0.645

Sequence chain: GUUCCGUUGGCGUAAUGGUAAUGCGACUUCCUCCUAAGGAGAAGACUGCGGGUCCGAGUCCCGUAUGGAACG
Op: ≤
Endpoint value: 0.5

Sequence chain: GUUACGUUGGCGUACUGGUAACGCGUCUCCCUCCUAAGGAGAAGACUGCGGGUUUGAGUCCCGUACGGAACG
Op: =
Endpoint value: 0.58

Sequence chain: GUUCCGUUGCCGUAAUGGUAACGCGUCUGCCUCCUAAGGAGAAGACUGCGGGAUCGAGUCCCGUACGGAACG
Op: ≤
Endpoint value: 0.5

Sequence chain: GUUCCGUUGGCGUAAUGGUAACGCGUCUCCCUCCUAAGGAGAAGACUGCGGGUUCGAGUCCUGUAAGGAACG
Op: =
Endpoint value: 0.686

Sequence chain: GUUCCGUUGGCGUAAUGGUAACGCGUCCCCCUCCUAAGGAGAAGACUGCGGGUUCGAGUCCCGUACGGACCG
Op: =
Endpoint value: 0.878

Sequence chain: GUUCCGUUGGAGUAAUGGUCGCGCGUCUCCCUCCUAAGGAGAAGACCGCGGGUUCCAGUCCCGCACGCAACG
Op: ≤
Endpoint value: 0.5

Sequence chain: GUUCCGUUGGCGUAUUGGUAACGCGUCUGCGUCCUAAGGAGAAGACUGCGGGUUCGAGUCCCGUACGGAACG
Op: ≤
Endpoint value: 0.5

Sequence chain: GUUCCGUUGGCCUCAUGGUAACGCGCCUCCCUCCUAAGGGGAAGACUGCGGGUUCGAGUCCCGUAUGGUACG
Op: =
Endpoint value: 0.598

Sequence chain: GUUCCGUUGGCGUAAUGGUAACGCGUCUCCCUCCUAAGGAGAAGACUGCGGGUUGGACUCCCGUACGGAACG
Op: =
Endpoint value: 0.587

Sequence chain: GUUCCGUAGGCGUAAUGGUAACGCAUCUCCCUCCUAAGGCGAAGAUUGCGGGUUCGAGUCCCGUACGGAACG
Op: =
Endpoint value: 0.598

Sequence chain: GUUCCGUUGGCGUAAUGGUAACGCGUCUCCCUCUUAAGGAGUAGACUGCGGGUUCGAGUCCCGUAUGGAACG
Op: ≤
Endpoint value: 0.5

Sequence chain: GUUCCGUUGGCGUAAUGGUAAGGCGUCUCCCUCCUAAGGAGAGGACUGCGGGUUCGAGUCCCGUACGGAACG
Op: =
Endpoint value: 0.702

Sequence chain: GCUCCGUUGGCGUAAUGGUAACGCGUCUCCCUUCUAAGGAGGACACUGCGGGUUCGAGUCCCGUACGGAACG
Op: ≤
Endpoint value: 0.5

Sequence chain: GUUCCGUUGGCGUAAUGCUAACGCGACUCCCUCCUAAGGAGAAGACUGCGGGCUCGAGUCCCGUACGGAACG
Op: =
Endpoint value: 0.549

Sequence chain: GUUCUGUUGGCGUAAUGGUAACGCGUCUCCCUUUUAAGGAGAAGACUGCGGGUUCGACUCCCAUACGGAACG
Op: ≤
Endpoint value: 0.5

Sequence chain: GUUCCGUUGGCGUAAUGGUAACGCGUCUCCCUCCUAAGGAGAAGACUGUGGGUUCGAGUCCCGUUCGGAACG
Op: =
Endpoint value: 0.91

Sequence chain: GUUCCGUUGGCGUAAUGGUAACGCGUCUCCCUCCUAAGGACAAGACUGCGGGUUCGUGUCCCAUACGGAACG
Op: =
Endpoint value: 0.567

Sequence chain: GUUCCGUUAGGGUAAUGGUAACGGGUCUCCCACCUAAGGAGAAGACUGCAGGUUCGAGUCUCCUACGGAACG
Op: ≤
Endpoint value: 0.5

Sequence chain: GUUCCCUCGGCGUAAUGGUAACGCGUCUCCCUCCUAAGGAGAAGACUGCGGGUUCGAGUACUGUACGGAACG
Op: ≤
Endpoint value: 0.5

Sequence chain: GUUCCGUUGGCGUAAUGGUAACGCGUCUCGCACCUAAGGGGAAGACUGCGGGUUCGAGUCGCGUACGGAACG
Op: ≤
Endpoint value: 0.5

Sequence chain: GUGCCGUUGGCGUAAUGGUAACGCGUCUCCCUCCUAAGGAGAAGACUGCGGGGUCGAGUCCCGUACGGAACG
Op: =
Endpoint value: 0.587

Sequence chain: GUUCCAUUGGCGUAAUGGUAACGCGUCUCCCUCCUAAGGAGAAGACUGCGGGUGCGAGUCCCGUUCGGAACG
Op: ≤
Endpoint value: 0.5

Sequence chain: GUUCCGUUGGCGUAAUGGUAACGCGUCUCCCUCCUAAAGAGAAGACAGCGGGUUGGAGUCUCGUACGGAACG
Op: =
Endpoint value: 0.718

Sequence chain: GUUCCGUUGGCGUAAUGGUAACGCGUCUGCCUCCUACGGAGAAGACUGCGGGUUCGAGUCCCAUACGGAACG
Op: ≤
Endpoint value: 0.5

Sequence chain: GUUCCGUUGGCGUAAUGGUAACGGGUCUCACUCCUAAGGAGAACACCGCGGGUUCGAGUCCCGUACGGAACG
Op: =
Endpoint value: 0.567

Sequence chain: GUUCCGUUGGCGUAAUGAUAACGCGUCUCCUUCCUAAGGAGAAGACUGCGGGUUCGAGUCCCGUACGGAUCG
Op: =
Endpoint value: 0.656

Sequence chain: GUUCCGUUGGCGUAAUGGUAACGGGUCUCCCUCCUAAGGAGAACACUGCGGGUUCGAGUCCCGUACGGAACG
Op: =
Endpoint value: 0.66

Sequence chain: GUUCCGCUGGCGUAAUGGUAACGCGUCUCCCUCCUAAGGAGAAGACUGUGGGUUAGAGUCCCGUACGGAACG
Op: ≤
Endpoint value: 0.5

Sequence chain: GUUCCGUUGGCCUGAUGGUAACGCGUCUCCCUCCUAAGGAGAAGACUGCGGGUUCGAGUCCCGUACGGAACG
Op: =
Endpoint value: 0.793

Sequence chain: GAUCCGUUGGCGUAAUGGUAACGCGUCUCCCUCCUAAGGAGAAGACUACGGGUUCGUGUCCCGUUAGGAACG
Op: ≤
Endpoint value: 0.5
